test: ARIADME phase I pharmacokinetics/bioavailability study; format: in vivo, human; settings: male, human, plasma, po, 300 mg, AUC0–inf, single 300 mg oral tablet, fasted; geometric mean (CV%)
Measured Parameter: AUC(0-inf)
Kindly write the number and append the unit.

// CC(O)c1cc(C(=O)N[C@@H](C)Cn2ccc(-c3ccc(C#N)c(Cl)c3)n2)[nH]n1 (stereo partly shown) [Darolutamide] : AUC(0-inf) value = 12900 ng·h/mL

* * *

format: in vivo, human; conditions: multiple (day 7) vs single (day 1) dosing, 600 mg BID
Measured Parameter: RACmax, accumulation ratio based on Cmax
Kindly provide the number alone.

get_value(item= C[C@H](O)c1cc(C(=O)N[C@@H](C)Cn2ccc(-c3ccc(C#N)c(Cl)c3)n2)n[nH]1 [(S,S)-darolutamide] , readout=RACmax, accumulation ratio based on Cmax) returns 2.0

Recorded result, C[C@@H](Cn1ccc(-c2ccc(C#N)c(Cl)c2)n1)NC(=O)c1cc([C@@H](C)O)[nH]n1 [(S,R)-darolutamide] , RACmax, accumulation ratio based on Cmax: 1.2

Measured RACmax, accumulation ratio based on Cmax, CC(=O)c1cc(C(=O)N[C@@H](C)Cn2ccc(-c3ccc(C#N)c(Cl)c3)n2)[nH]n1 [Keto-darolutamide, keto-darolutamide] : 2.0

Reported RACmax, accumulation ratio based on Cmax for CC(O)c1cc(C(=O)N[C@@H](C)Cn2ccc(-c3ccc(C#N)c(Cl)c3)n2)[nH]n1 (stereo partly shown) [Darolutamide] was 1.9
